Test system: MAT1C (FaMAT1C)
Construct: gene MAT1; no tag removal described
Assay: LC-MS malonyltransferase assay, non-linear Michaelis-Menten fit
Assay type: biochemical, Fragaria × ananassa
Conditions: acceptor; co-substrate malonyl-CoA; potassium phosphate pH 7.0, 30°C, 30 min
From the text: LC-MS malonyltransferase assay, non-linear Michaelis-Menten fit on MAT1C (FaMAT1C)
Reported values of Km for individual entries
measuredMetric: Km (µM)

OC[C@H]1O[C@@H](Oc2cc3c(O)cc(O)cc3[o+]c2-c2ccc(O)c(O)c2)[C@H](O)[C@@H](O)[C@@H]1O [Cyanidin‐3‐glucoside] ... 17
OC[C@H]1O[C@@H](Oc2cc3c(O)cc(O)cc3[o+]c2-c2ccc(O)cc2)[C@H](O)[C@@H](O)[C@@H]1O [Pelargonidin‐3‐glucoside] ... 270
O=c1c(O[C@@H]2O[C@H](CO)[C@@H](O)[C@H](O)[C@H]2O)c(-c2ccc(O)cc2)oc2cc(O)cc(O)c12 [Kaempferol‐3‐glucoside] ... 150
O=c1c(O[C@@H]2O[C@H](CO)[C@@H](O)[C@H](O)[C@H]2O)c(-c2ccc(O)c(O)c2)oc2cc(O)cc(O)c12 [Quercetin‐3‐glucoside] ... 310
